# growth per entry
Tested on: 786-0 renal
Test: NCI-60 one-dose screen, 48 h (100 = growth as untreated, 0 = no growth, -100 = all killed)
Details: 10 µM unless noted
Description: Cells are grown in 96 well plates and exposed to the test compound for 48 hours. Compounds are tested at a single concentration, which is 10^-5 M for most compounds. The reported endpoint is percent growth (GI% or GIPRCNT), where numbers from 0 - 100% represent growth inhibition, and numbers from -100% - 0 represent cell death. For example, a value of 40 represents 60% growth inhibition. A value of 0 means no net growth occurred over the course of the experiment. […]
This is part of a sample that, as a whole, favours compounds with a hit. Of some 83,000 tested, about 20% had one in any assay. The source made the active and inactive calls. The calls were made as follows: active = growth percent below 10; inactive = the rest.
quantity_name: growth

molecule=CC1=NC2=CC=CC3=NC(C(Cl)(Cl)Cl)=NC(=N1)N23 quantity_name=growth recorded_value="88.7% (inactive)"
molecule="CN(C)CCCC(C#N)c1ccccc1 (centres undefined)" quantity_name=growth recorded_value="97.9% (inactive)"
molecule=Cc1ccc(Nc2nnc(-c3ccc(Cl)cc3)o2)c(C)c1 quantity_name=growth recorded_value="89.3% (inactive)"
molecule=COc1ccc(-c2c(N)n[nH]c2-c2cc(OC)c(OC)c(OC)c2)cc1 quantity_name=growth recorded_value="33.7% (inactive)"
molecule=COc1cc2c(cc1O)CCN1C[C@@H](CC(C)C)[C@@H](O)C[C@@H]21 quantity_name=growth recorded_value="92% (inactive)"
molecule=COc1ccc(-c2cnoc2-c2ccc(OC)cc2O)cc1 quantity_name=growth recorded_value="44.5% (inactive)"
molecule=Cc1cc(N/N=C/c2nc(-c3ccc(Br)cc3)oc2C)c2cc(Cl)ccc2n1 quantity_name=growth recorded_value="34.1% (inactive)"
molecule=O=C(/C=C/c1c[nH]c2ccccc12)c1ccc(O)c(CN2CCN(c3ccc(F)cc3)CC2)c1 quantity_name=growth recorded_value="103% (inactive)"
molecule=COc1cc(C(=O)/C=C/c2c(C)n([O-])c3ccc(C(F)(F)F)cc3[n+]2=O)cc(OC)c1OC quantity_name=growth recorded_value="101% (inactive)"
molecule=COc1ccc(/C=C2\N=C(c3ccccc3)N(C(=O)c3ccccc3O)NC2=O)cc1 quantity_name=growth recorded_value="89.8% (inactive)"
molecule=O=C1CCCCC1(c1ccccc1)c1ccccc1 quantity_name=growth recorded_value="109% (inactive)"
molecule="CC(C)(C)c1[nH]nc2c1C(c1cc3ccccc3[nH]c1=O)Nc1cc(C(=O)Nc3ccc(Cl)cc3)ccc1N2 (centres undefined)" quantity_name=growth recorded_value="66.1% (inactive)"
molecule="COc1ccc2c(c1)C(c1cc(OC)c3c(c1)OCO3)C1=C(COC1=O)N2 (centres undefined)" quantity_name=growth recorded_value="29.5% (inactive)"
molecule=COc1ccc(C(=O)NC(=O)Nc2cc3c(cc2F)/C(=C/c2[nH]c(C)c(CCC(=O)O)c2C)C(=O)N3)c(F)c1 quantity_name=growth recorded_value="39% (inactive)"
molecule=Cn1ncc2c(Sc3ccc(Cl)cc3)ncnc21 quantity_name=growth recorded_value="98.8% (inactive)"
molecule=COc1ccc(-c2ccc(C)n2-c2ccc(-c3nc4ccccc4s3)cc2)cc1 quantity_name=growth recorded_value="100% (inactive)"
molecule=COc1cc(-c2nn(-c3cccc(NC(=O)Nc4cc(C(F)(F)F)cc(C(F)(F)F)c4)c3)cc2-c2ccncc2)ccc1Cl quantity_name=growth recorded_value="-71.1% (active)"
molecule=CC(C)CSc1nc(NN)c(C#N)c(-c2ccc(F)cc2)n1 quantity_name=growth recorded_value="85.9% (inactive)"
molecule=COc1ccc(Nc2nn3c(-c4ccccc4)cc(-c4ccccc4)nc3c2C(N)=O)c(OC)c1 quantity_name=growth recorded_value="67.6% (inactive)"
molecule=Fc1ccc(Nc2nc(NCCNc3ccnc4cc(Cl)ccc34)nc(N3CCOCC3)n2)cc1 quantity_name=growth recorded_value="53.6% (inactive)"
molecule=CN(C)CCN1C(=O)c2ccc3c4c(ccc(c24)C1=O)C(=O)N(CCN=C=S)C3=O quantity_name=growth recorded_value="-81.3% (active)"
molecule="CN(CCCCCl)P(=O)(OCc1ccc([N+](=O)[O-])o1)C(F)(F)C[C@H](NC(=O)CNC(=O)c1ccc(N=[N+]=[N-])cc1)C(=O)NCCc1ccc(O)cc1 (some centres undefined)" quantity_name=growth recorded_value="109% (inactive)"
molecule=COc1ccc(Nc2ncccc2C(=O)NCc2cn(Cc3cccc(Oc4ccccc4)c3)nn2)c(OC)c1 quantity_name=growth recorded_value="34% (inactive)"
molecule=COc1cc(-c2nc(-c3nc4ccc(Cl)cc4[nH]3)cc3c2[nH]c2ccccc23)cc(OC)c1OC quantity_name=growth recorded_value="81% (inactive)"
molecule=CCCN=C1NC(=O)/C(=C/c2nc(-c3ccc(OC)cc3)n3ccccc23)S1 quantity_name=growth recorded_value="58.5% (inactive)"
molecule="Cc1ccc(N2CCN(C(C)C(N)=O)CC2)cc1 (centres undefined)" quantity_name=growth recorded_value="103% (inactive)"
molecule=O=[N+]([O-])c1cccc(-c2nc3sccn3c2-c2ccnc(NCCCNS(=O)(=O)c3ccc(C(F)(F)F)cc3)n2)c1 quantity_name=growth recorded_value="51.8% (inactive)"
molecule="COc1ccc(C2=CC(c3cc(OC)c(OC)c(OC)c3)NC(=O)N2)cc1OC (centres undefined)" quantity_name=growth recorded_value="27.9% (inactive)"
molecule=Nc1nnc(-c2ccc3ccccc3c2O)o1 quantity_name=growth recorded_value="104% (inactive)"
molecule="O=C1C2(c3ccccc3)C(c3ccccc3)=C(c3ccccc3)C1(c1ccccc1)C1CC=CC12 (centres undefined)" quantity_name=growth recorded_value="85.9% (inactive)"
molecule=COc1ccc(NC(=O)c2cc(OC)c(OC)c(OC)c2)cc1O quantity_name=growth recorded_value="38.5% (inactive)"
molecule="COc1ccc(C2C(C#N)=C(N)Oc3c2ccc2ccccc32)cc1 (centres undefined)" quantity_name=growth recorded_value="73.1% (inactive)"
molecule=CN(C)CCCN(c1nc(C(Cl)(Cl)Cl)ns1)c1nc(C(Cl)(Cl)Cl)ns1 quantity_name=growth recorded_value="42.4% (inactive)"
molecule=O=C(NCCNc1nccc(-n2ccc3cccnc32)n1)c1ccc(C(F)(F)F)cc1 quantity_name=growth recorded_value="103% (inactive)"
molecule="C/C=C(\\C)C(C(=O)NC1CCCCC1)N(C(=O)C1CCc2cc(F)ccc2O1)c1ccc(Cl)cc1 (centres undefined)" quantity_name=growth recorded_value="101% (inactive)"
molecule="NC(=S)N/N=C1\\CCCC(C(F)(F)F)C1 (centres undefined)" quantity_name=growth recorded_value="98.9% (inactive)"
molecule=Cc1[nH]c2ccc(F)cc2c1CCNC(=O)C1CCN(C(=O)c2ccccc2)CC1 quantity_name=growth recorded_value="88.9% [25 µM] (inactive)"
molecule=CC(C)(C)n1cc(-c2ccnc(NCCCNS(=O)(=O)c3ccc(C(F)(F)F)cc3)c2)c(-c2cccc(O)c2)n1 quantity_name=growth recorded_value="-17.3% (active)"
molecule=COc1cc(C(=O)/C=C/c2ccc3nc(-c4cc(F)cc(F)c4)sc3c2)cc(OC)c1OC quantity_name=growth recorded_value="93.4% (inactive)"

====

System: UO-31 renal
Assay: NCI-60 one-dose screen, 48 h (100 = growth as untreated, 0 = no growth, -100 = all killed)
Conditions: 10 µM unless noted
About 83,000 compounds went through this panel and 20% of them were active in at least one assay; those are over-represented in the sample as a whole.
quantity_name: growth (%)

compound=COc1ccc(-c2ccc(-c3ccc(C(=N)N)cn3)s2)cc1OC recorded_value=85.7
compound=N#Cc1c(-c2ccccc2)nc(SCC(=O)N2CCN(c3ccccc3)CC2)[nH]c1=O recorded_value=87.6
compound=O=C(Nc1cccc(-n2cc(-c3ccncc3)c(-c3ccc(Cl)c(O)c3)n2)c1)Nc1ccc(Cl)c(Cl)c1 recorded_value=21
compound=c1cc2[nH]ncc2cc1-c1nc2ccc3[nH]ncc3c2c2c1CCC2 recorded_value=38
compound=CC(=O)Nc1ccc(S(=O)(=O)n2ccc(-c3ccc4c(c3)CCC(C)(C)O4)n2)cc1 recorded_value=67.9
compound=COc1ccc2c(c1)[nH]c(=O)c1c3cc(OC)ccc3cn21 recorded_value=28.6
compound=COc1ccc(-c2nc3sccn3c2/C=C/C(=O)c2cc(F)cc(F)c2)cc1 recorded_value=60.5
compound=Cn1ccc(Nc2nccc(Oc3ccc(C(=O)Nc4cccc(F)c4)c(Cl)c3)n2)c1 recorded_value=62.6
compound=COc1ccc(OC)c(/C=C2\Oc3cc(OCCCN4CCCC4)ccc3C2=O)c1 recorded_value=56.7
compound="CC1CN(c2oc(-c3ccccc3)nc2C#N)CC(C)O1 (stereo not given)" recorded_value=95.2

====

Test system: NCI-H522 lung
Assay: NCI-60 one-dose screen, 48 h (100 = growth as untreated, 0 = no growth, -100 = all killed)
Conditions: 10 µM unless noted
The panel holds about 83,000 compounds, 20% with a hit somewhere; the sample as a whole holds those more often.
# growth per entry
quantity_name: growth (%)

molecule=C=C[C@@H]1C[C@@H]2Cc3cc(Cl)ccc3N1O2 quantity_name=growth recorded_value=92.7
molecule=COc1ccc(-c2nc(-c3nc4cc(C)c(C)cc4[nH]3)cc3c2[nH]c2ccccc23)cc1 quantity_name=growth recorded_value=72.5
molecule=Cn1ccc(=O)c(S(N)(=O)=O)c1 quantity_name=growth recorded_value=96.2
molecule=N=C(N)c1ccc(-c2cc(Cl)cc(Cl)c2)cn1 quantity_name=growth recorded_value=90.1
molecule=CCC1=CCC[C@@]2(C)CCC[C@@]3(C)CCCC(C)(C)[C@]1([O-])[O+]32 quantity_name=growth recorded_value=93.9
molecule=CC1(c2ccc(Cl)cc2)OC(=O)CC(=O)O1 quantity_name=growth recorded_value=90.1
molecule=Cc1cc(C(C)(C)C)ccc1S quantity_name=growth recorded_value=85.8
molecule=COC(=O)c1nc(-c2ccccc2)oc1S(=O)(=O)N1CCN(c2cccc(Cl)c2)CC1 quantity_name=growth recorded_value=53.9
molecule=COc1ccc(-c2cnoc2-c2ccc(OC)cc2O)cc1 quantity_name=growth recorded_value=-16
molecule=COC(=O)c1cc2cc(-c3ccc(OC)cc3)cnc2[nH]1 quantity_name=growth recorded_value=-52.2
molecule=NC(=N\N=C/c1ccc(O)cc1)/C(N)=N\N=C/c1ccc(O)cc1 quantity_name=growth recorded_value=31.4
molecule=COc1ccc(/C=C2\Oc3cc(OCCCN4CCCC4)ccc3C2=O)c(OC)c1 quantity_name=growth recorded_value=75
molecule=O=C(Nc1ccncc1)C(=O)c1cn(S(=O)(=O)c2ccc(Oc3ccccc3)cc2)c2ccccc12 quantity_name=growth recorded_value=87.4
molecule="NC1=NN(O)C2=CC([N+](=O)[O-])C=CC2=N1 (stereo not drawn)" quantity_name=growth recorded_value=94.2
molecule=COc1ccc(-c2nc(/C=N/Nc3cc(C)nc4ccc(Cl)cc34)c(C)o2)cc1 quantity_name=growth recorded_value=-85.2
molecule=COc1ccc(C(=O)n2nc(/C=C/c3ccc(O)c(OC)c3)cc2/C=C/c2ccc(O)c(OC)c2)cc1 quantity_name=growth recorded_value=-6.8
molecule=O=C(NNC(=O)N1c2ccccc2C=Cc2ccccc21)c1ccc2ccccc2c1 quantity_name=growth recorded_value=85.9
molecule=OB(O)c1cccc(-c2nc3ccc4[nH]ncc4c3c3c2CCCC3)c1F quantity_name=growth recorded_value=26.9
molecule=COc1cc([N+](=O)[O-])c2ncccc2c1O quantity_name=growth recorded_value=42.5
molecule=NC(=O)CCCN1C/C(=C\c2ccccc2)C(=O)c2ccccc21 quantity_name=growth recorded_value=80.4
molecule=S=C1CC(=S)NC(=S)N1 quantity_name=growth recorded_value=101
molecule=CN1CCN(Cc2ccc(NC(=O)c3nc4ccc5[nH]ncc5c4c4c3CCC4)cc2C(F)(F)F)CC1 quantity_name=growth recorded_value=-71.1
molecule="CCCCC(CC)OC(=O)C(Br)CC (stereo not drawn)" quantity_name=growth recorded_value=103
molecule=O=C1NC(=C(Cl)Cl)/C(=N/S(=O)(=O)N2CCC(C3(C(F)(F)F)N=N3)CC2)N1 quantity_name=growth recorded_value=-58
molecule=COc1cc2c(cc1O)CCN1C[C@@H](CC(C)C)[C@@H](O)C[C@@H]21 quantity_name=growth recorded_value=93.6
molecule=COc1cc(/C=C/c2cc(/C=C/c3ccc(O)c(OC)c3)n(C(N)=O)n2)ccc1O quantity_name=growth recorded_value=-21.2
molecule=O=C1/C(=C/c2ccccc2)Oc2ccc(O)c(I)c21 quantity_name=growth recorded_value=84
molecule="O=c1[nH]c2ccc(Br)cc2c2c1C(c1ccc(Cl)cc1)c1c(ncn3nc(-c4ccco4)nc13)O2 (stereo not drawn)" quantity_name=growth recorded_value=69.4
molecule="Clc1ccc2c(NC3CCC(NC4CCCCC4)CC3)ccnc2c1 (stereo not drawn)" quantity_name=growth recorded_value=62.2
molecule=Cc1ccc(-c2nc(C(Cl)Cl)n3nc(-c4ccccc4)cc3n2)cc1 quantity_name=growth recorded_value=100
molecule=O=C(/C=C/c1ccccc1)c1cccc(O)c1 quantity_name=growth recorded_value=116
molecule="NC1N=C(SCC(=O)N2CCN(c3cc4c(cc3F)c(=O)c(C(=O)O)cn4C3CC3)CC2)NC(=O)/C1=C/c1ccc(Cl)cc1 (stereo not drawn)" quantity_name=growth recorded_value=94.7
molecule=Cc1nc2ncccc2nc1Nc1ccc(S(=O)(=O)Nc2cncs2)cc1 quantity_name=growth recorded_value=103
molecule="CN(C)c1oc(C2OC2c2ccccc2)nc1C#N (stereo not drawn)" quantity_name=growth recorded_value=87.7
molecule=O=c1cc/c(=N\Nc2ccccc2)c(=O)/c1=N/Nc1ccccc1 quantity_name=growth recorded_value=110
molecule="C=C1CCC2C(C)(CO)C(O)CCC2(C)C1C/C=C1/C(=O)OCC1O/C=C/c1ccccc1 (stereo not drawn)" quantity_name=growth recorded_value=60.3
molecule=C=CCSc1n[nH]c(-c2cccs2)n1 quantity_name=growth recorded_value=92
molecule=COc1cc2c(cc1OCCCN1CCN(CCCn3c4ccccc4c4ccccc43)CC1)N=C[C@@H]1CCCN1C2=O quantity_name=growth recorded_value=-26.6
molecule="CN(CCCCCl)P(=O)(OCc1ccc([N+](=O)[O-])o1)C(F)(F)C[C@H](NC(=O)CNC(=O)c1ccc(N=[N+]=[N-])cc1)C(=O)NCCc1ccc(O)cc1 (stereo partly drawn)" quantity_name=growth recorded_value=-66.9
molecule=CC(=O)Nc1scc[n+]1Cc1ccccc1 quantity_name=growth recorded_value=103
molecule=COc1ccc(/C(C#N)=C/c2cc(OC)c(OC)c(OC)c2)cc1 quantity_name=growth recorded_value=15.8
molecule=COc1ccc(Nc2ncccc2C(=O)NCc2cn(Cc3cccc(Oc4ccccc4)c3)nn2)cc1 quantity_name=growth recorded_value=26.1
molecule=O=C(Nc1ccncc1)C(=O)c1cn(S(=O)(=O)c2ccc(Br)cc2)c2ccccc12 quantity_name=growth recorded_value=18.3
